growth inhibition listing for selected molecules.
assay: NCI Yeast Anticancer Drug Screen. Data for the rad50 strain (AID 155);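 also: 0% = growth of vehicle-only cultures of the same strain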; details: S. cerevisiae rad50 strain growth inhibition, active compounds read high; at 50.0 µM unless noted
The panel holds about 79,000 compounds, 15% with a hit somewhere; the sample as a whole holds those more often.
A number alone suffices; assume %.

Quote growth inhibition reported for `CC(C)CCOB(OCCC(C)C)OCCC(C)C` please.
-25.9

Quote growth inhibition reported for `CCCc1cc2c(cc1CC#N)OCO2` please.
-5.65

Quote growth inhibition reported for `CCN(CC)c1nc(Cl)nc(Nc2ccc3cc(-c4ccccc4)c(=O)oc3c2)n1` please.
-9.15

Quote growth inhibition reported for `CC(C)(C)NNC(=O)CCn1[nH]c(=O)c(Cl)c(Cl)c1=O` please.
-0.8

Quote growth inhibition reported for `CCCCSc1ncnc2nc[nH]c12` please.
-38

New cases:
Quote growth inhibition reported for `Clc1nc(NCCc2ccccc2)c2ncn(-c3ccccc3)c2n1` please.
52.9

Quote growth inhibition reported for `O=C(Cc1cccnc1)c1cccnc1` please.
-52.3

Quote growth inhibition reported for COC(=O)CC1CCS(=O)(=O)C1 (configuration not stated) please.
-6.6

Quote growth inhibition reported for `CN(C)c1nc(NC(=O)NC(=O)c2c(F)cccc2F)nc(N(C)C)n1` please.
-2

Quote growth inhibition reported for `CCOC(=O)c1c(-c2ccc([N+](=O)[O-])cc2)cn(-c2ccc(OC)cc2)c1C` please.
13.2

Quote growth inhibition reported for CC(C)(C)OC(=O)CC(NC(=O)OC(C)(C)C)C(=O)NC(C(=O)O)C(O)c1ccccc1 (configuration not stated) please.
-19.4

Quote growth inhibition reported for CC(C)CCC[C@@H](C)C1CCC2[C@@H]3CCC4C[C@@H](CCC=C(c5cc(Cl)c(O)c(C(=O)O)c5)c5cc(Cl)c(O)c(C(=O)O)c5)CC[C@]4(C)C3CC[C@@]21C (some centres not stated) please.
-26.4

###

test: NCI Yeast Anticancer Drug Screen. Data for the mec2-1 strain (AID 157); conditions: S. cerevisiae mec2-1 strain; at 50.0 µM unless noted
Compounds without any hit were thinned out: in the full panel of roughly 79,000, 15% have a hit. Activity calls are given as the source filed them. Rule as the data show it: active = growth inhibition above about 70%; inactive = the rest.
Select the matching outcome among yes = active, no = inactive

Example entries and their recorded answers appear below.
Tell me the recorded outcome of this test for `CC(=O)Nc1cccc(N=Cc2ccc(N(CCOS(C)(=O)=O)CCOS(C)(=O)=O)cc2C)c1` .
yes

Tell me the recorded outcome of this test for `O=C1c2sc(-c3ccc(Cl)cc3)cc2-n2cccc21` .
no

Tell me the recorded outcome of this test for COc1ccccc1C(=O)NCC1CCCN2CCCCC12 (configuration not stated) .
no

Tell me the recorded outcome of this test for `CC1C2=C(CC(C)(C)CC2=O)NC2=C1C(=O)CC(C)(C)C2` .
no

Tell me the recorded outcome of this test for `Cc1ccc(OCC(=O)O)c(Cl)c1` .
no

Then this compound:
Tell me the recorded outcome of this test for CC1C(=O)C(c2cccs2)(C2CCCCC2)CC[N+]1(C)C (configuration not stated) .
no

###

assay: NCI Yeast Anticancer Drug Screen. Data for the mlh1 rad18 strain (AID 175); settings: S. cerevisiae mlh1 rad18 strain growth inhibition, active compounds read high; at 50.0 µM unless noted
The panel holds about 79,000 compounds, 15% with a hit somewhere; the sample as a whole holds those more often.
property: growth inhibition (%)
A number alone suffices; assume %.

Some compounds with recorded growth inhibition:
Quote growth inhibition reported for `O=C(O)c1cccc(OCCO)c1` please.
-29.9

Quote growth inhibition reported for `CC1=N[C@@H](C(=O)NCC(N)=O)Cc2c1[nH]c1ccccc21` please.
4.4

Quote growth inhibition reported for `Cc1c(Cl)cccc1NC(=O)CCl` please.
16.2

Quote growth inhibition reported for `C(=Nc1cccnc1)c1ccc(C=Nc2cccnc2)cc1` please.
33

Quote growth inhibition reported for `C/C(=C\c1ccc(N(C)C)cc1)c1ccncc1` please.
48.2

We now examine a further compound.
Quote growth inhibition reported for `C/C=C(/Br)C(=O)O` please.
-12.9

###

assay: NCI Yeast Anticancer Drug Screen. Data for the mec2-1 strain (AID 157); conditions: S. cerevisiae mec2-1 strain, at 5.0 µM (retest, dose inferred, filed as 0.5), active compounds read high
About 79,000 compounds went through this panel and 15% of them were active in at least one assay; those are over-represented in the sample as a whole.
property: growth inhibition (%)
A number alone suffices; assume %.

Some compounds with recorded growth inhibition:
Quote growth inhibition reported for `N#CC(C#N)N=Nc1cc(Cl)ccc1Cl` please.
13

Quote growth inhibition reported for `O=C(O)/C=C\C(=O)Nc1cccc2ccccc12` please.
-1

Quote growth inhibition reported for `CN(C)c1ccc(/C=C\C(=O)c2ccccc2)cc1` please.
1

Quote growth inhibition reported for `O=C(Cc1ccccc1)c1ccc(O)c(Cl)c1` please.
2

Quote growth inhibition reported for `COc1ccc(Nc2ccc3ccccc3c2)cc1` please.
-2

New cases:
Quote growth inhibition reported for `N#CC(C#N)N=Nc1ccc(Cl)cc1` please.
18

Quote growth inhibition reported for `Oc1ccc(Cc2ccccc2Cl)c(O)c1` please.
-4

Quote growth inhibition reported for `CCCCNc1ccc(Nc2ccccc2)cc1` please.
1

Quote growth inhibition reported for C/C(CC(C)C(=O)O)=N/NC(N)=O (centres undefined) please.
-8

###

experiment: NCI Yeast Anticancer Drug Screen. Data for the rad50 strain (AID 155);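 also: 0% = growth of vehicle-only cultures of the same strain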; settings: S. cerevisiae rad50 strain growth inhibition, active compounds read high; at 50.0 µM unless noted
The panel holds about 79,000 compounds, 15% with a hit somewhere; the sample as a whole holds those more often.
property: growth inhibition (%)
A number alone suffices; assume %.

Some molecules with recorded growth inhibition:
Quote growth inhibition reported for `CON(C)C(=O)CNC(=O)OCC1c2ccccc2-c2ccccc21` please.
8

Quote growth inhibition reported for CCOc1ccccc1NC(=O)/C(=N\NC(C)(C)C)C1C(=O)Nc2ccccc2S1=O (stereo unspecified) please.
-4.3

Quote growth inhibition reported for `Cc1c(=O)n(C)c2ccccc2[n+]1[O-]` please.
7.9

Quote growth inhibition reported for `CCOC(=O)/C(SC#N)=C(/N)N1CCCC1` please.
-12.2

Quote growth inhibition reported for O=C(OCC1OCOC2C(COC(=O)c3ccccc3)OCOC12)c1ccccc1 (stereo unspecified) please.
9.05

Quote growth inhibition reported for `O=C(Nc1ccc(S(=O)(=O)Nc2nccs2)cc1)c1ccncc1` please.
-0.05

New cases:
Quote growth inhibition reported for `COc1ccc2oc3c(OC)c(OC)c(OC)cc3c(=O)c2c1` please.
-11.3

Quote growth inhibition reported for `CCCCCCCC(=O)C1C(=O)OC(C)(C)OC1=O` please.
9.65

Quote growth inhibition reported for `O=C1c2ccccc2-c2c1c1ccccc1c(=O)n2-c1ccccc1` please.
-1.7

Quote growth inhibition reported for `CC(=O)Nc1cccc(N=Cc2ccc(N(CCOS(C)(=O)=O)CCOS(C)(=O)=O)cc2C)c1` please.
73.8

Quote growth inhibition reported for `CC(=O)ONC(C(=O)C(C)(C)C)C(=O)C(C)(C)C` please.
-1.4

###

assay: NCI Yeast Anticancer Drug Screen. Data for the rad50 strain (AID 155);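 also: 0% = growth of vehicle-only cultures of the same strain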; conditions: S. cerevisiae rad50 strain growth inhibition, active compounds read high; at 50.0 µM unless noted
Compounds without any hit were thinned out: in the full panel of roughly 79,000, 15% have a hit.
growth inhibition listing for selected molecules.
A number alone suffices; assume %.

Quote growth inhibition reported for `CCN(CC)CCOc1ccc(N2C(=O)c3cc(OC)c(OC)cc3C2=O)cc1` please.
-23.4

Quote growth inhibition reported for `O=C(O)Cc1ccc(O)cc1` please.
6.25

Quote growth inhibition reported for `O/N=C/c1ccco1` please.
1.2

Quote growth inhibition reported for `Cc1ccnc(NC(=O)CCc2ccccc2)c1` please.
-11.8

Quote growth inhibition reported for `Cc1cc(=O)[nH]c2[nH]c(=O)ccc12` please.
-11.4

Quote growth inhibition reported for CC(=O)OC1CCC(=O)C2C(C(=O)O)CCCC12 (stereo not given) please.
6.9

Quote growth inhibition reported for `CCCCN1CCC(N)=NC1=O` please.
10.1

Quote growth inhibition reported for `Cc1cccc(Nc2nc(C)nc3[nH]cc(-c4ccccc4)c23)c1` please.
-14.7

Quote growth inhibition reported for `CCCCCC[N+](C)(C)C` please.
28

Quote growth inhibition reported for O=CC(=O)C(O)C(O)C(O)CO (stereo not given) please.
9.5

New cases:
Quote growth inhibition reported for `CC(=O)c1cccc(NC(=O)Nc2ccc(F)c([N+](=O)[O-])c2)c1` please.
7.3

Quote growth inhibition reported for CCCCCCC(=O)C/C(=N/NC(N)=S)C(=O)NC1C2CC3CC(C2)CC1C3 (stereo not given) please.
-14.8

Quote growth inhibition reported for `C[N+](C)=c1nc(N2CCOCC2)ss1` please.
1.95

Quote growth inhibition reported for `CCC(=O)Oc1ccc(C(=O)c2ccc(OC(=O)CC)cc2)cc1` please.
5.05

Quote growth inhibition reported for `N#Cc1c[nH]c(=O)[nH]c1=O` please.
-25.3

Quote growth inhibition reported for `COc1ccc(/C=N/N=C(/C(=O)c2ccc(OC)cc2)c2ccc(OC)cc2)cc1` please.
32.6

Quote growth inhibition reported for OC1c2ccccc2C2c3ccccc3C1C2Cl (stereo not given) please.
43.8

Quote growth inhibition reported for N#CC(C#N)N=O (tested in a mixture with another compound) please.
-4.1

Quote growth inhibition reported for `CSc1ccc(NC(=O)Nc2cc(C)ccc2N=Nc2ccc(C)cc2)cc1` please.
-1.5

Quote growth inhibition reported for CC1=C2CC(C)(C)CC(=O)C2(C)CCC1=O (stereo not given) please.
4.2

Quote growth inhibition reported for `O=C(Oc1ccc(Cl)cc1)c1ccc([N+](=O)[O-])cc1` please.
12.2

Quote growth inhibition reported for `Cc1cc2c(c(C(=O)O)c1C)-c1cccc(Cl)c1C2=O` please.
-15.7

Quote growth inhibition reported for `O=C1Nc2cc(Br)ccc2C1=O` please.
7.5

Quote growth inhibition reported for `O=C(Nc1ccc(Cl)cc1[N+](=O)[O-])Oc1ccc(C2CCCCC2)cc1` please.
98.2

Quote growth inhibition reported for `Cc1ccc(S(=O)(=O)NNC(=O)CCn2[nH]c(=O)c(Cl)c(Cl)c2=O)cc1` please.
-16.9

Quote growth inhibition reported for COc1cccc2c1C(=O)c1c(O)c3c(c(O)c1C2=O)C[C@@](O)(C(=O)CO)CC3OC1CC(O)C(O)C(C)O1 (stereo not given in full) please.
72
